Item-by-item account of IC50
assay: Inhibition of Saccharomyces cerevisiae alpha-glucosidase using p-nitrophenyl-alpha-D-glucopyranoside as substrate preincubated for 15 to 20 mins followed by substrate addition measured after 45 to 60 mins by spectrophotometric analysis

- MOLECULE: "Nc1ccc(CCC(=O)Nc2ccc(CCC(=O)N3CC[C@@H](O)[C@H](O)C3)cc2)cc1 (relative stereo)"
  IC50 (µM): 384
- MOLECULE: "OCCN1C[C@H](O)[C@@H](O)[C@H](O)[C@H]1CO"
  IC50 (µM): 462
- MOLECULE: "O=C(CCc1ccc(O)cc1)Nc1ccc(CCC(=O)N2CC[C@H](O)[C@H](O)C2)cc1 (relative stereo)"
  IC50 (µM): 284
- MOLECULE: "CC(C)(C)OC(=O)Nc1ccc(CCC(=O)N2CC[C@@H](O)[C@@H](O)C2)cc1 (relative stereo)"
  IC50 (µM): 663
- MOLECULE: "OCC(CO)N[C@H]1C[C@](O)(CO)[C@@H](O)[C@H](O)[C@H]1O"
  IC50 (µM): 325
- MOLECULE: "O=C(CCc1ccc(C(F)(F)F)cc1)Nc1ccc(CCC(=O)N2CC[C@H](O)[C@H](O)C2)cc1 (relative stereo)"
  IC50 (µM): 479
- MOLECULE: "O=C(/C=C/c1ccc(O)cc1)N1CC[C@@H](O)[C@@H](O)C1 (relative stereo)"
  IC50 (µM): 442
- MOLECULE: "Nc1ccc(CCC(=O)Nc2ccc(CCC(=O)N3CC[C@H](O)[C@H](O)C3)cc2)cc1 (relative stereo)"
  IC50 (µM): 247
